# Test system: HIV transcripts (TAR, LLTR, Pol, PolyA, TatRev)
# assayProcedure: Cell-associated HIV transcripts (RT-ddPCR) 6 days after anti-CD3/CD28 activation of PBMCs from ART-suppressed PWH
# Assay type: cell-based
# statedConditions: participant 2750; DMSO+CD3/28 = 1; Fig 4B, C and D
attributeMeasured: LLTR/TAR

Query: What LLTR/TAR value was documented for this compound, CC(C)[C@]12O[C@H]1[C@@H]1O[C@]13[C@]1(O[C@H]1C[C@H]1C4=C(CC[C@@]13C)C(=O)OC4)[C@@H]2O [triptolide] ?
Result: 14.8232

Query: Which LLTR/TAR reading was recorded for the compound C=CCNC1=C2C[C@@H](C)C[C@H](OC)[C@H](O)[C@@H](C)/C=C(\C)[C@H](OC(N)=O)[C@@H](OC)/C=C\C=C(/C)C(=O)NC(=CC1=O)C2=O [tanespimycin] ?
Result: 1.458

Query: Look at this compound and give its reported LLTR/TAR. N#CC[C@H](C1CCCC1)n1cc(-c2ncnc3[nH]ccc23)cn1 [ruxolitinib]
Result: 1.117

Query: LLTR/TAR for CCc1cnn2c(NCc3ccc[n+]([O-])c3)cc(N3CCCC[C@H]3CCO)nc12 [dinaciclib] ?
Result: 1.778

Query: Entry CC(=O)N[C@@H]1CCC[C@H](C(=O)Nc2cc(-c3cnn4c3CC(C)(C)C4)c(Cl)cn2)C1 [AZD4573] : reported LLTR/TAR = ?
Result: 0.6631

====

# Test system: PBMCs
# assayProcedure: Cell viability by trypan blue staining after 24 hours
# Type: cell-based, human
# statedConditions: study participant 152
Kindly supply the reported Viability (Fig 1A) values for the records listed here.

Query: So what's the measured Viability (Fig 1A) for this one? CN1CCN(c2nc(C3=C(c4c[nH]c5ccccc45)C(=O)NC3=O)c3ccccc3n2)CC1
Result: 98.33 % of activated DMSO

Query: May I ask what Viability (Fig 1A) has been recorded for O=c1c(O)c(-c2ccc(O)c(O)c2)oc2cc(O)cc(O)c12 ?
Result: 90.16 % of activated DMSO

Query: Any idea what Viability (Fig 1A) was measured for Cn1cc(C2=C(c3cn(C4CCN(Cc5ccccn5)CC4)c4ccccc34)C(=O)NC2=O)c2ccccc21 ?
Result: 98.98 % of activated DMSO

Query: Dear colleague, I am looking for the recorded Viability (Fig 1A) of the following molecule: CCCCCCCCCCCCCCC=C(C(=O)OCC)C(=O)OCC
Result: 97.61 % of activated DMSO

Query: Request the reported Viability (Fig 1A) associated with CNc1ccc([N+](=O)[O-])c(Nc2ccc3[nH]ncc3c2)n1
Result: 101.83 % of activated DMSO

Query: Item under review: COc1cc(F)ccc1-c1ncnc(Nc2cccc(C[S@](C)(=N)=O)c2)n1 . Reported Viability (Fig 1A)?
Result: 95.7 % of activated DMSO

Query: If you can, please state the reported Viability (Fig 1A) value of Nc1nc2nn[nH]c2c(=O)[nH]1 .
Result: 98.65 % of activated DMSO

Query: Fill blank: measured Viability (Fig 1A) of the molecule Nc1ccc(O)c(C(=O)O)c1 is ____.
Result: 98.77 % of activated DMSO

Query: Query (molecule): N#CC[C@H](C1CCCC1)n1cc(-c2ncnc3[nH]ccc23)cn1 ; field requested: Viability (Fig 1A)
Result: 102.01 % of activated DMSO

Value source: paper PMC11466185
